HDAC6 inhibitory rate (%) (1 μM) values, listed per item
Target: HDAC6 enzyme (Homo sapiens, UniProt Q9UBN7)
Construct: prepared by transducing full length HDAC1 and HDAC6 genes into Sf-9 insect cells; GST; purchased SignalChem; host or cells: Sf-9 insect cells
Sequence (Q9UBN7 1-1215): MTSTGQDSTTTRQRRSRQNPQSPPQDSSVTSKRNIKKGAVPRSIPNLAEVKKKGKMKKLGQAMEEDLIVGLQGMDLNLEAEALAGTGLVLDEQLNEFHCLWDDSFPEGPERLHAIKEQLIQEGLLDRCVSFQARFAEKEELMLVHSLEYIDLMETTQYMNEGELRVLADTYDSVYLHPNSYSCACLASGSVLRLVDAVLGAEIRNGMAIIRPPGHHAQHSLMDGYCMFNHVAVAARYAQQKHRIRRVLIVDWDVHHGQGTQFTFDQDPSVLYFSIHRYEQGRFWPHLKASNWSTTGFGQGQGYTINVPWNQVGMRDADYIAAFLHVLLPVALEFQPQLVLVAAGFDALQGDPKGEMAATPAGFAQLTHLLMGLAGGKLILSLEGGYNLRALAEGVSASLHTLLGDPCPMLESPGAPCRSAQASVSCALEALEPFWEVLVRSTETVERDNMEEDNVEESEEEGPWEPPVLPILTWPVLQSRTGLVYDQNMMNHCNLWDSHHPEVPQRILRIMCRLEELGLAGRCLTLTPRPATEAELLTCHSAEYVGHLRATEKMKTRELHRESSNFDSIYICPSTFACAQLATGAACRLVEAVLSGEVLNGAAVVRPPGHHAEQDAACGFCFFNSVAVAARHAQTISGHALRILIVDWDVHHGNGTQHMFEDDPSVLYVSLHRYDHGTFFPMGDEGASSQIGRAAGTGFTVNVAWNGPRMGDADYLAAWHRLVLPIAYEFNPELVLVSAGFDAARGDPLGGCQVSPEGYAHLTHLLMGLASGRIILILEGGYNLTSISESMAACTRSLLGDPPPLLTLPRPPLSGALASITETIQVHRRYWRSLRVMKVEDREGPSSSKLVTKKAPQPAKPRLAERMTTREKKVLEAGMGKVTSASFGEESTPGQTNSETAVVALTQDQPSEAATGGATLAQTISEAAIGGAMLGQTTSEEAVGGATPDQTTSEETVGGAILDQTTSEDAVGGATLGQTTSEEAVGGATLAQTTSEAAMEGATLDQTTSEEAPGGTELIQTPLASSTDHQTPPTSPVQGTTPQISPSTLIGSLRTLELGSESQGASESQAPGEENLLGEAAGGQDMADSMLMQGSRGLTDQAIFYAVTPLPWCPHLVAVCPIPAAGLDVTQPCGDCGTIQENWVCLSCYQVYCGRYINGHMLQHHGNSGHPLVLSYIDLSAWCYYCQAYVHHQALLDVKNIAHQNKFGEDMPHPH
Assay: HDAC6 enzyme inhibitory assay (HDAC-Glo I/II Assay kit)
Assay type: biochemical
Conditions: 1 μM test compound; 1 µM
test.readout: HDAC6 inhibitory rate (%) (1 μM)

# compound, result.value
data = [
    ("O=C(NC[C@H]1COCCN1C(=O)c1cccc(F)c1)c1ccc(-c2noc(C(F)(F)F)n2)cc1 [Example 41]", 98),
    ("O=C(NC[C@H]1COCCN1C(=O)c1cc(F)c(F)c(F)c1)c1ccc(-c2noc(C(F)(F)F)n2)cc1 [Example 47]", 102),
    ("Cc1cc(C(=O)N2CCOC[C@@H]2CNC(=O)c2ccc(-c3noc(C(F)(F)F)n3)cc2)ccn1 [Example 49]", 98),
    ("O=C(NC[C@H]1COCCN1C(=O)c1ccccc1)c1ccc(-c2noc(C(F)(F)F)n2)cc1 [Example 36]", 105),
    ("N#Cc1ccccc1C(=O)N1CCOC[C@@H]1CNC(=O)c1ccc(-c2noc(C(F)(F)F)n2)cc1 [Example 43]", 101),
    ("O=C(NC[C@H]1COCCN1C(=O)c1cc(Cl)cc(Cl)c1)c1ccc(-c2noc(C(F)(F)F)n2)cc1 [Example 37]", 98),
    ("N#Cc1cccc(C(=O)N2CCOC[C@@H]2CNC(=O)c2ccc(-c3noc(C(F)(F)F)n3)cc2)c1 [Example 44]", 99),
]
